These measurements were taken from paper PMC10298926.

Molecular target: engineered MATH domain of SPOP (Speckle-type POZ protein), residues 1-182, cysteine residues substituted to serine (UniProt O43791)
Assay: other fluorescence titration; equilibrium; FRET from the tryptophans of SPOP MATH (excited at 280 nm, emission 300-400 nm) to the dansyl of the peptide; MATH at constant concentration (2 µM in the methods, 1 µM in the results), dansylated peptide 0 to 40 µM; 298 K; hyperbolic fit
Where no end group is shown, it is not given here. The star is where a group is joined. Dansyl = CN(C)c1cccc2c(S(=O)(=O)*)cccc12
metric: Kd (µM)
Write it as a number; the unit µM goes unstated.

Kindly note the recorded Kd for Dansyl-PSNPEASSSTSVTPD [dansylated peptide mimicking PTEN (region 354-368)] , which is 5.5
